The origin of these recorded values is PubChem BioAssay AID248.

Tested on: L1210 leukemia ip in BDF1 mice, survival T/C
Experiment: NCI In Vivo Anticancer Drug Screen. Data for tumor model L1210 Leukemia (intraperitoneal) in B6D2F1 (BDF1) mice
Conditions: endpoint: mean survival time; dose: 50.0 mg/kg/injection; schedule: Q04DX003 (ip); vehicle: Klucel (hydroxypropylcellulose) (HPC); higher = longer survival
Toxic doses and inconclusive results are not listed.
property.measured: T/C

- O=CNc1ccc2c(c1)Cc1cc(Br)ccc1-2: 97 % of control
- N#C/C(=C\c1cccs1)c1ccccc1: 110 % of control
- NC(=O)C(c1ccccc1)N1CCCCC1 (stereo not given): 100 % of control
- C=CCc1cc(CNC(C)C)c(O)c(OC)c1: 88 % of control
- COc1ccccc1NC(N)=S: 92 % of control
- Cn1cc(Br)c2ccccc2c1=O: 101 % of control
- C=C1N(c2ccc(OC)c(OC)c2)C(=O)OC12CCCCC2: 93 % of control
- Cc1nc(Cl)c(CO)c(CO)c1O: 90 % of control
- O=C(Nc1ccc(O)cc1)OCc1ccccc1: 91 % of control
- C=C=[CH][Sn]([c]1ccccc1)([c]1ccccc1)[c]1ccccc1: 99 % of control
